Entry source: patent US20180044434A1

Target Or System: T1, full-length recombinant mouse PAD4 (mouse, UniProt Q9Z183 1-666)
T1 construct: mature; Full-length recombinant
T1 sequence (Q9Z183 whole entry): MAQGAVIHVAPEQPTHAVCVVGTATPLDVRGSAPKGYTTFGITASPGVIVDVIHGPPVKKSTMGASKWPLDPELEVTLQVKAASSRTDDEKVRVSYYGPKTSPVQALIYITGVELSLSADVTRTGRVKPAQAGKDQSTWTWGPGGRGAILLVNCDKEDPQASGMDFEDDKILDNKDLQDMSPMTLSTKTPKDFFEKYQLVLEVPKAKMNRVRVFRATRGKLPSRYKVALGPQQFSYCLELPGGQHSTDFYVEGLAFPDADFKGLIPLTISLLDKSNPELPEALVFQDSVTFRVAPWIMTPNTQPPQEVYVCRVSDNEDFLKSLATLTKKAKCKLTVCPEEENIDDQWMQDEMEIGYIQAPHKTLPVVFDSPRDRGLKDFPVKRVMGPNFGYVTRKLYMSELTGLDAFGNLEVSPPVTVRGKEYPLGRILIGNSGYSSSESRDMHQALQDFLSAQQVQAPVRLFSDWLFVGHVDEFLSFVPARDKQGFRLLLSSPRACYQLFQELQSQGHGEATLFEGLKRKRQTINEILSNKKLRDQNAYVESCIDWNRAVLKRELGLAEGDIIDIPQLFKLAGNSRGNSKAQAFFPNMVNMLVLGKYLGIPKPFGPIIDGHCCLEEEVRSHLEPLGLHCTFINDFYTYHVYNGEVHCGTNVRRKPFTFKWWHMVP
Assay Procedure: ELISA, coated mouse PAD4; antibody 0.25 ug/mL
Measurement Label: OD 490/630 nm
Provide a numeric answer; units are not to be included.

// sample G9 (antibody, V domains shown, Chicken variable regions in a mouse chimeric antibody (IgG1); also called anti-PAD4 antibody G9) VH: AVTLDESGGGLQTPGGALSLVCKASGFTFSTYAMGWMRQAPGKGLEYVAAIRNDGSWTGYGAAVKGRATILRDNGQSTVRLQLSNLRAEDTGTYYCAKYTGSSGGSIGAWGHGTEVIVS VL: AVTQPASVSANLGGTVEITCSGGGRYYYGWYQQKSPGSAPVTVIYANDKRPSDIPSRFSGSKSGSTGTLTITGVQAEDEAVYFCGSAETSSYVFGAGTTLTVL , its OD 490/630 nm was 2.25

// sample E9 (antibody, V domains shown, Chicken variable regions in a mouse chimeric antibody (IgG1); also called anti-PAD4 antibody E9) VH: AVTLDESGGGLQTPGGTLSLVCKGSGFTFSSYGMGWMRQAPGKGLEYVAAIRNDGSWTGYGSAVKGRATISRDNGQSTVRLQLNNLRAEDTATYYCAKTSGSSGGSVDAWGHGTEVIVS VL: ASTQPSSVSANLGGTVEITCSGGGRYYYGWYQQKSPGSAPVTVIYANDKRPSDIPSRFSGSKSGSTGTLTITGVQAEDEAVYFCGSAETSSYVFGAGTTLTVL , its OD 490/630 nm was 2.23

// sample A11 (antibody, V domains shown, Chicken variable regions in a mouse chimeric antibody (IgG1); also called anti-PAD4 antibody A11) VH: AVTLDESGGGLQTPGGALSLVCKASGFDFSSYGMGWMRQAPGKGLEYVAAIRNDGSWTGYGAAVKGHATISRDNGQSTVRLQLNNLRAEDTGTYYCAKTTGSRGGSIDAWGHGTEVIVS VL: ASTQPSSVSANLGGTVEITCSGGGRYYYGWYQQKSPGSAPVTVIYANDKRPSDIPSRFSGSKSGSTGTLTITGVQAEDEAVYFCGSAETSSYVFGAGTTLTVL , its OD 490/630 nm was 2.25

// sample G8 (antibody, V domains shown, Chicken variable regions in a mouse chimeric antibody (IgG1); also called anti-PAD4 antibody G8) VH: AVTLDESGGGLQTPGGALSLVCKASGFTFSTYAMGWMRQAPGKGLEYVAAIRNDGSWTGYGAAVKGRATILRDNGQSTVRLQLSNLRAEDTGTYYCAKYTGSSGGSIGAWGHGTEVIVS VL: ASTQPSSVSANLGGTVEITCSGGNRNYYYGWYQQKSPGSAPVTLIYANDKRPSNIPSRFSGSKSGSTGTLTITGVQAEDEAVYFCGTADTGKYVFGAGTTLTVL , its OD 490/630 nm was 2.25

// sample G6 (antibody, V domains shown, Chicken variable regions in a mouse chimeric antibody (IgG1); also called anti-PAD4 antibody G6) VH: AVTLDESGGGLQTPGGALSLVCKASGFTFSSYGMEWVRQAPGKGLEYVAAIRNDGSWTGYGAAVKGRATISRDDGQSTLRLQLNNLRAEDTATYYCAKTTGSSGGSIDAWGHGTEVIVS VL: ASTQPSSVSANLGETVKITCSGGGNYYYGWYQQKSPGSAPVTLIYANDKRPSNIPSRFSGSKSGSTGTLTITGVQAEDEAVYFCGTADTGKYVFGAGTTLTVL , its OD 490/630 nm was 2.27

// sample H7 (antibody, V domains shown, Chicken variable regions in a mouse chimeric antibody (IgG1); also called anti-PAD4 antibody H7) VH: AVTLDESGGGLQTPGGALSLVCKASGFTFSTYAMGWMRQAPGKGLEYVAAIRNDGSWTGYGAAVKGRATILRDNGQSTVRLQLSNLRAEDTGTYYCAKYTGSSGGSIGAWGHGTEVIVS VL: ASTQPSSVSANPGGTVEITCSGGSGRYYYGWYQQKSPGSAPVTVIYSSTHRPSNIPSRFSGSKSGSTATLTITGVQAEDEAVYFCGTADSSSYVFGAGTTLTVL , its OD 490/630 nm was 2.31
